experimentalSetup: human gut metagenome, 24 h, 2 µM; further: call rule not given here
parameterMeasured: Bacterial Biotransformation

# compound, parameterMeasured, testValue
rows = [
    ("CCCCC(=O)N(Cc1ccc(-c2ccccc2-c2nnn[nH]2)cc1)[C@H](C(=O)O)C(C)C", "Bacterial Biotransformation", "Compound metabolized"),
    ("Cc1ccc(/C(=C\\CN2CCCC2)c2ccccn2)cc1 [TRIPROLIDINE]", "Bacterial Biotransformation", "Compound NOT metabolized"),
    ("CNC(=C[N+](=O)[O-])NCCSCc1csc(CN(C)C)n1 [NIZATIDINE]", "Bacterial Biotransformation", "Compound metabolized"),
    ("CN1C[C@H](C(=O)N[C@]2(C)O[C@@]3(O)[C@@H]4CCCN4C(=O)[C@H](Cc4ccccc4)N3C2=O)C=C2c3cccc4[nH]cc(c34)C[C@H]21.CN1C[C@H](C(=O)N[C@]2(C)O[C@@]3(O)[C@@H]4CCCN4C(=O)[C@H](Cc4ccccc4)N3C2=O)C=C2c3cccc4[nH]cc(c34)C[C@H]21.O=C(O)C(O)C(O)C(=O)O [ERGOTAMINE TARTRATE]", "Bacterial Biotransformation", "Compound metabolized"),
    ("COc1ccccc1N1CCN(CC(O)COc2cccc3ccccc23)CC1 (configuration not stated) [NAFTOPIDIL]", "Bacterial Biotransformation", "Compound NOT metabolized"),
    ("CCCc1nc2c(C)cc(-c3nc4ccccc4n3C)cc2n1Cc1ccc(-c2ccccc2C(=O)O)cc1", "Bacterial Biotransformation", "Compound metabolized"),
    ("CCOc1ccc(NC(C)=O)cc1 [PHENACETIN]", "Bacterial Biotransformation", "Compound NOT metabolized"),
]

----------
experimentalSetup: human gut metagenome, 24 h, 2 µM

# molecule, Bacterial Biotransformation
rows = [
    ("CCOC(=O)[C@H](CCc1ccccc1)N[C@H]1CCc2ccccc2N(CC(=O)O)C1=O", "Compound metabolized"),
    ("O=c1n(CCCN2CCN(c3cccc(Cl)c3)CC2)nc2ccccn12", "Compound NOT metabolized"),
    ("O=C1[C@H](CC[C@H](O)c2ccc(F)cc2)[C@@H](c2ccc(O)cc2)N1c1ccc(F)cc1", "Compound metabolized"),
    ("OCCN1CCN(CCCN2c3ccccc3Sc3ccc(C(F)(F)F)cc32)CC1", "Compound metabolized"),
    ("CN1CCOC(c2ccccc2)c2ccccc2C1 (centres undefined)", "Compound metabolized"),
    ("Nc1nc2ccc(OC(F)(F)F)cc2s1", "Compound NOT metabolized"),
    ("CC(Oc1c(Cl)cccc1Cl)C1=NCCN1 (centres undefined)", "Compound NOT metabolized"),
    ("CCCCCOC(=O)Nc1nc(=O)n([C@@H]2O[C@H](C)[C@@H](O)[C@H]2O)cc1F", "Compound metabolized"),
    ("CCC(COC(=O)c1cc(OC)c(OC)c(OC)c1)(c1ccccc1)N(C)C.O=C(O)/C=C\\C(=O)O (centres undefined)", "Compound NOT metabolized"),
]

----------
experimentalSetup: human gut metagenome, 24 h, 2 µM
Where a SMILES comes first, the peptide text is derived from it. [ ]: non-standard residue; d: D form. pGlu = O=C1CC[C@@H](C(=O)O)N1; Thz = O=C(O)[C@@H]1CSCN1
parameterMeasured: Bacterial Biotransformation

# compound, testValue
records = [
    ("CN1C(=O)CCS(=O)(=O)C1c1ccc(Cl)cc1 (stereo unspecified) [CHLORMEZANONE]", "Compound NOT metabolized"),
    ("CC(C)N(CCC(C(N)=O)(c1ccccc1)c1ccccn1)C(C)C.O=P(O)(O)O (stereo unspecified) [DISOPYRAMIDE PHOSPHATE]", "Compound NOT metabolized"),
    ("O=C(CCCN1CCC(O)(c2ccc(Cl)cc2)CC1)c1ccc(F)cc1 [HALOPERIDOL]", "Compound NOT metabolized"),
    ("CCCCC1=NC2(CCCC2)C(=O)N1Cc1ccc(-c2ccccc2-c2nnn[nH]2)cc1 [IRBESARTAN]", "Compound metabolized"),
    ("CC(=O)OCC(=O)[C@@]1(O)[C@@H](C)C[C@H]2[C@@H]3CCC4=CC(=O)C=C[C@]4(C)[C@@]3(F)[C@@H](O)C[C@@]21C [BETAMETHASONE ACETATE]", "Compound metabolized"),
    ("CCc1nc(N)nc(N)c1-c1ccc(Cl)cc1 [PYRIMETHAMINE]", "Compound NOT metabolized"),
    ("Cc1cn([C@H]2C[C@H](N=[N+]=[N-])[C@@H](CO)O2)c(=O)[nH]c1=O [ZIDOVUDINE]", "Compound NOT metabolized"),
    ("CC(C)NCC(O)COc1ccc(COCCOC(C)C)cc1.CC(C)NCC(O)COc1ccc(COCCOC(C)C)cc1.O=C(O)/C=C/C(=O)O (stereo unspecified) [BISOPROLOL FUMARATE]", "Compound metabolized"),
    ("CC(Oc1c(Cl)cccc1Cl)C1=NCCN1 (stereo unspecified) [LOFEXIDINE]", "Compound metabolized"),
    ("COc1ccccc1N1CCN(CC(O)COc2cccc3ccccc23)CC1 (stereo unspecified) [NAFTOPIDIL]", "Compound NOT metabolized"),
    ("CC(=O)O[C@]1(C(C)=O)CC[C@H]2[C@@H]3C=C(Cl)C4=CC(=O)[C@@H]5C[C@@H]5[C@]4(C)[C@H]3CC[C@@]21C [CYPROTERONE ACETATE]", "Compound metabolized"),
    ("Cc1ccc(S(=O)(=O)NC(=O)NN2CC3CCCC3C2)cc1 (stereo unspecified) [GLICLAZIDE]", "Compound metabolized"),
    ("O=C1CC[C@@H](C(=O)N2CSC[C@H]2C(=O)O)N1 [PIDOTIMOD] ([pGlu]-[Thz]-OH)", "Compound NOT metabolized"),
    ("CCCCCOC(=O)Nc1nc(=O)n([C@@H]2O[C@H](C)[C@@H](O)[C@H]2O)cc1F [CAPECITABINE]", "Compound metabolized"),
    ("COc1ccccc1OCC(O)CN1CCN(CC(=O)Nc2c(C)cccc2C)CC1 (stereo unspecified) [RANOLAZINE]", "Compound NOT metabolized"),
    ("CC(C)c1nc(CN(C)C(=O)N[C@H](C(=O)N[C@@H](Cc2ccccc2)C[C@H](O)[C@H](Cc2ccccc2)NC(=O)OCc2cncs2)C(C)C)cs1 [RITONAVIR]", "Compound metabolized"),
]

----------
experimentalSetup: human gut metagenome, 24 h, 2 µM

# compound, Bacterial Biotransformation
rows = [
    ("O=C(CCCN1CCC(O)(c2ccc(Cl)cc2)CC1)c1ccc(F)cc1", "Compound NOT metabolized"),
    ("Cc1cn([C@H]2C[C@H](N=[N+]=[N-])[C@@H](CO)O2)c(=O)[nH]c1=O", "Compound NOT metabolized"),
    ("CCOC(=O)[C@H](CCc1ccccc1)N[C@@H](C)C(=O)N1[C@H](C(=O)O)C[C@H]2CCCC[C@@H]21", "Compound metabolized"),
    ("O=P(O)(O)O.c1ccc(CN(CC2=NCCN2)c2ccccc2)cc1 [ANTAZOLINE PHOSPHATE]", "Compound NOT metabolized"),
    ("CCOc1ccc(NC(C)=O)cc1", "Compound NOT metabolized"),
    ("CC(=O)O[C@]1(C(C)=O)CC[C@H]2[C@@H]3C=C(Cl)C4=CC(=O)[C@@H]5C[C@@H]5[C@]4(C)[C@H]3CC[C@@]21C [CYPROTERONE ACETATE]", "Compound metabolized"),
    ("CC(C)c1nc(CN(C)C(=O)N[C@H](C(=O)N[C@@H](Cc2ccccc2)C[C@H](O)[C@H](Cc2ccccc2)NC(=O)OCc2cncs2)C(C)C)cs1", "Compound metabolized"),
    ("COCCc1ccc(OCC(O)CNC(C)C)cc1.COCCc1ccc(OCC(O)CNC(C)C)cc1.O=C(O)C(O)C(O)C(=O)O (stereo unspecified) [METOPROLOL TARTRATE]", "Compound NOT metabolized"),
    ("CNCCC(Oc1ccc(C(F)(F)F)cc1)c1ccccc1 (stereo unspecified)", "Compound NOT metabolized"),
    ("CCN1CCCC1CNC(=O)c1cc(S(N)(=O)=O)ccc1OC (stereo unspecified) [SULPIRIDE]", "Compound metabolized"),
    ("COc1ccc2[nH]c([S+]([O-])Cc3ncc(C)c(OC)c3C)nc2n1 (stereo unspecified)", "Compound metabolized"),
    ("C[C@@H]1C[C@H]2[C@@H]3CCC4=CC(=O)C=C[C@]4(C)[C@@]3(F)[C@@H](O)C[C@]2(C)[C@@]1(O)C(=O)CO", "Compound NOT metabolized"),
    ("OC(CCN1CCCCC1)(c1ccccc1)C1CC2C=CC1C2 (stereo unspecified)", "Compound NOT metabolized"),
    ("CCN(CC)C(C)CN1c2ccccc2Sc2ccccc21 (stereo unspecified)", "Compound metabolized"),
    ("CN1CCOC(c2ccccc2)c2ccccc2C1 (stereo unspecified)", "Compound NOT metabolized"),
    ("CO[C@]12C[C@@H](COC(=O)c3cncc(Br)c3)CN(C)[C@@H]1Cc1cn(C)c3cccc2c13", "Compound NOT metabolized"),
]
